# assay.target: Serine/threonine-protein kinase 24 (Homo sapiens)
# Sequence (Q9Y6E0 whole entry): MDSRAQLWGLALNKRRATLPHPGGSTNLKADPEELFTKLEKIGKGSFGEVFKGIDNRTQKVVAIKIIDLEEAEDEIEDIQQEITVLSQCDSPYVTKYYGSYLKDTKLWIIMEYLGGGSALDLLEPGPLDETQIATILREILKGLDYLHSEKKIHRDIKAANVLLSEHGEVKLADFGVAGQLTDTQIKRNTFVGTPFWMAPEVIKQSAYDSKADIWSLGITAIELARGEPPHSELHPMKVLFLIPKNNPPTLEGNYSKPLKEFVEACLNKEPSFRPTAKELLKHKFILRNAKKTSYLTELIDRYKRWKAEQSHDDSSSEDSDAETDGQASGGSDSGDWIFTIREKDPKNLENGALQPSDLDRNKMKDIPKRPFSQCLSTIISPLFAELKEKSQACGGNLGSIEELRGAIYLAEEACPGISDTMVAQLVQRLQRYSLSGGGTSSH
# assay.procedure: Inhibition of MST3 (unknown origin) expressed in HEK293T cells using NanoGlo as substrate incubated for 20 hrs by NanoBRET assay
# Assay type: cell-based
value.type: EC50 (nM)

Known EC50 results, listed for orientation:
INSERT INTO measurements (chemical_smiles, value_type, measurement) VALUES
  ('CNc1ncc2cc(-c3ccc(-c4cccc(C)n4)cc3Cl)c(=O)n(CCOC)c2n1', 'EC50', 420),
  ('CNc1ncc2cc(-c3ccc(-c4cccc(C)n4)cc3Cl)c(=O)n(CCCO)c2n1', 'EC50', 382),
  ('CNc1ncc2cc(-c3ccc(-c4cccc(C)n4)cc3Cl)c(=O)n(CCN)c2n1', 'EC50', 1200),
  ('CNc1ncc2cc(-c3ccc(-c4cccc(C)n4)cc3Cl)c(=O)n(CCCOC)c2n1', 'EC50', 594),
  ('CNc1ncc2cc(-c3ccc(-c4cccc(C)n4)cc3Cl)c(=O)n(CCCCCO)c2n1', 'EC50', 316);

[a] CNc1ncc2cc(-c3ccc(-c4cccc(C)n4)cc3Cl)c(=O)n(CCCCO)c2n1
[b] CNc1ncc2cc(-c3ccc(-c4cccc(C)n4)cc3Cl)c(=O)n(CCCCOC)c2n1
Q. Hello, I am sorting some records. Could you say if a or b has the smaller EC50 value? Write the label of whichever entry you select.
A. a

[P] CNc1ncc2cc(-c3ccc(-c4cccc(C)n4)cc3Cl)c(=O)n(CCCN)c2n1
[Q] CNc1ncc2cc(-c3ccc(-c4cccc(C)n4)cc3Cl)c(=O)n(CCCCN)c2n1
[R] CNc1ncc2cc(-c3ccc(-c4cccc(C)n4)cc3Cl)c(=O)n(C)c2n1
[S] CNc1ncc2cc(-c3ccc(-c4cccc(C)n4)cc3Cl)c(=O)n(CCCCCN)c2n1
[T] CNc1ncc2cc(-c3ccc(-c4cccc(C)n4)cc3Cl)c(=O)n(CCC3CCNCC3)c2n1
Q. Reorder: EC50, max to min. Response format: the labels, sorted as the prompt asks.
A. R, P, S, T, Q
(R: 775 nM, P: 251 nM, S: 92 nM, T: 60 nM, Q: 42 nM)

[P] CNc1ncc2cc(-c3ccc(-c4cccc(C)n4)cc3Cl)c(=O)n(CCO)c2n1
[Q] CNc1ncc2cc(-c3ccc(-c4cccc(C)n4)cc3Cl)c(=O)n(C[C@H]3CC[C@H](N)CC3)c2n1
Q. Hello, I am sorting some records. Could you say if P or Q has the smaller EC50 value? Write the label of whichever entry you select.
A. Q

----------
# assay.target: Serine/threonine-protein kinase 4 (Homo sapiens)
# Sequence (Q13043 whole entry): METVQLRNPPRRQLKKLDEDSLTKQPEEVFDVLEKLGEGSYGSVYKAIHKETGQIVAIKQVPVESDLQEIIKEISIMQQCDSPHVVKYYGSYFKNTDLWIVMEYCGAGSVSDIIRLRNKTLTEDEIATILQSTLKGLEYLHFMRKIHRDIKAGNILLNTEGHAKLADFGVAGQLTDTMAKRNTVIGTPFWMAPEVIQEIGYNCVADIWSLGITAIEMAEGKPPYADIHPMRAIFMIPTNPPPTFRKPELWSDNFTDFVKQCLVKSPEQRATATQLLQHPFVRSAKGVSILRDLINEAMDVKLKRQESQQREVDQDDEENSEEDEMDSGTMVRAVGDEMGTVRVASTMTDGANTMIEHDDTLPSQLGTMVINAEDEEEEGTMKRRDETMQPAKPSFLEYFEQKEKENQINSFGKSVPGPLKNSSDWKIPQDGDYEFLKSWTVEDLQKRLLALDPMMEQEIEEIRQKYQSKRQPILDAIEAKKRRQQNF
# assay.procedure: Inhibition of MST1 (unknown origin) expressed in HEK293T cells using NanoGlo as substrate incubated for 20 hrs by NanoBRET assay
value.type: EC50 (µM)

Known EC50 results, listed for orientation:
INSERT INTO assay_data (chemical_smiles, value_type, measurement) VALUES
  ('CNc1ncc2cc(-c3ccc(-c4cccc(C)n4)cc3Cl)c(=O)n(CCCO)c2n1', 'EC50', 6.7),
  ('CNc1ncc2cc(-c3ccc(-c4cccc(C)n4)cc3Cl)c(=O)n(CCCCCO)c2n1', 'EC50', 3),
  ('CNc1ncc2cc(-c3ccc(-c4cccc(C)n4)cc3Cl)c(=O)n(CCCOC)c2n1', 'EC50', 9.2);

[I] CNc1ncc2cc(-c3ccc(-c4cccc(C)n4)cc3Cl)c(=O)n(CCO)c2n1
[II] Cc1cccc(-c2ccc(-c3cc4cnc(NCCCN5CCCC5=O)nc4n(CCCCN)c3=O)c(Cl)c2)n1
Q. Returns: the argument ( I or II ) having the larger EC50. Write the label of whichever entry you select.
A. II

----------
# assay.target: Serine/threonine-protein kinase 4 (Homo sapiens) (UniProt Q13043)
# assay.procedure: Binding affinity to recombinant MST1 (unknown origin) assessed as change in melting temperature by DSF analysis
value.type: ΔTm (°C)

Known ΔTm results, listed for orientation:
INSERT INTO measurements (chemical_smiles, assay_target, measurement) VALUES
  ('Cc1cccc(-c2ccc(-c3cc4cnc(Nc5ccc(CCCO)cc5)nc4n(CCCCN)c3=O)c(Cl)c2)n1', 'Serine/threonine-protein kinase 4 (Homo sapiens) (UniProt Q13043)', 8.7),
  ('COc1cc(N2CCOCC2)ccc1Nc1ncc2cc(-c3ccc(-c4cccc(C)n4)cc3Cl)c(=O)n(CCCCN)c2n1', 'Serine/threonine-protein kinase 4 (Homo sapiens) (UniProt Q13043)', 4.6),
  ('Cc1cccc(-c2ccc(-c3cc4cnc(NCCCN5CCNCC5)nc4n(CCCCN)c3=O)c(Cl)c2)n1', 'Serine/threonine-protein kinase 4 (Homo sapiens) (UniProt Q13043)', 3.1);

[I] CNc1ncc2cc(-c3ccc(-c4cccc(C)n4)cc3Cl)c(=O)[nH]c2n1
[II] CNc1ncc2cc(-c3ccc(-c4cccc(C)n4)cc3Cl)c(=O)n(CCCCCN)c2n1
[III] CNc1ncc2cc(-c3ccc(-c4cccc(C)n4)cc3Cl)c(=O)n(C)c2n1
Q. Reorder: ΔTm, max to min. Response format: the labels, sorted as the prompt asks.
A. II, III, I
(II: 5.2 °C, III: 1.6 °C, I: 0 °C)

----------
# assay.target: Serine/threonine-protein kinase 3 (Homo sapiens, UniProt Q13188)
# Sequence (Q13188 whole entry): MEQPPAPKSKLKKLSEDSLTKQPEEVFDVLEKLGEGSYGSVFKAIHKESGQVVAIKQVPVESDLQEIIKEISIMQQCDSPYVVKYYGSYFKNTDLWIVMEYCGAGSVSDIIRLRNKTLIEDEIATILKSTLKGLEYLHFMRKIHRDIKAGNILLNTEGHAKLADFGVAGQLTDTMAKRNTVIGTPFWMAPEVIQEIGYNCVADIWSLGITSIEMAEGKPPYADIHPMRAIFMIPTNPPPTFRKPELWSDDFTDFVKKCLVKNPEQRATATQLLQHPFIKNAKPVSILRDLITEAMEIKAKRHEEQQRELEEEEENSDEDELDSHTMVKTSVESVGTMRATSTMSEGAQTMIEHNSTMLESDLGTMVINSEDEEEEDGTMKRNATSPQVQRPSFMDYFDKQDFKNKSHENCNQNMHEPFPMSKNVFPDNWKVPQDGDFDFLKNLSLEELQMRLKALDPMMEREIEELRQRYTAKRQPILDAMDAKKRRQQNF
# assay.procedure: Inhibition of MST2 (unknown origin) expressed in HEK293T cells using NanoGlo as substrate incubated for 20 hrs by NanoBRET assay
pEC50: −log10 of the molar value.
value.type: pEC50

INSERT INTO results (chemical_smiles, assay_target, measurement) VALUES
  ('Cc1cccc(-c2ccc(-c3cc4cnc(NCCCc5ccc(N)cc5)nc4n(CCCCN)c3=O)c(Cl)c2)n1', 'Serine/threonine-protein kinase 3 (Homo sapiens, UniProt Q13188)', 5.44),
  ('CNc1ncc2cc(-c3ccc(-c4cccc(C)n4)cc3Cl)c(=O)n(CCCO)c2n1', 'Serine/threonine-protein kinase 3 (Homo sapiens, UniProt Q13188)', 5.22),
  ('CNc1ncc2cc(-c3ccc(-c4cccc(C)n4)cc3Cl)c(=O)n(CCCCO)c2n1', 'Serine/threonine-protein kinase 3 (Homo sapiens, UniProt Q13188)', 5.44);

[a] CNc1ncc2cc(-c3ccc(-c4cccc(C)n4)cc3Cl)c(=O)n(CCCCOC)c2n1
[b] CNc1ncc2cc(-c3ccc(-c4cccc(C)n4)cc3Cl)c(=O)n(C[C@H]3CC[C@H](N)CC3)c2n1
Q. Hello, I am sorting some records. Could you say if a or b has the smaller pEC50 value? Write the label of whichever entry you select.
A. a

----------
# assay.target: Serine/threonine-protein kinase 26 (Homo sapiens, UniProt Q9P289)
# Sequence (Q9P289 2-416 limits assumed): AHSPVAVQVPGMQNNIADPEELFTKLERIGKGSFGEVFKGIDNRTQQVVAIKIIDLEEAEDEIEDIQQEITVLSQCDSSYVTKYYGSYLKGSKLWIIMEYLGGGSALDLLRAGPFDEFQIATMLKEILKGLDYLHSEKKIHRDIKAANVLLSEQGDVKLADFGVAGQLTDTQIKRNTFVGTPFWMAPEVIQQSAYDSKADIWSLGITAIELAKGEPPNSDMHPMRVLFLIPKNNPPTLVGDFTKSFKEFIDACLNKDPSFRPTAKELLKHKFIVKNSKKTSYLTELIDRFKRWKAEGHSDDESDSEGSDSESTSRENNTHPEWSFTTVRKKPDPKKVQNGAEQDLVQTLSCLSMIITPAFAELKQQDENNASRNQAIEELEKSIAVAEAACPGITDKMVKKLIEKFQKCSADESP
# assay.procedure: Binding affinity to recombinant MST4 (unknown origin) assessed as change in melting temperature by DSF analysis
value.type: ΔTm (°C)

Known ΔTm results, listed for orientation:
INSERT INTO measurements (chemical_smiles, measurement) VALUES
  ('CNc1ncc2cc(-c3ccc(-c4cccc(C)n4)cc3Cl)c(=O)n(CCCCOC)c2n1', 3.6),
  ('Cc1cccc(-c2ccc(-c3cc4cnc(Nc5ccc(C)c(O)c5)nc4n(CCCCN)c3=O)c(Cl)c2)n1', 15.9),
  ('CNc1ncc2cc(-c3ccc(-c4cccc(C)n4)cc3Cl)c(=O)n(CCC3CCNCC3)c2n1', 7.8);

[P] CNc1ncc2cc(-c3ccc(-c4cccc(C)n4)cc3Cl)c(=O)n(CCN)c2n1
[Q] CNc1ncc2cc(-c3ccc(-c4cccc(C)n4)cc3Cl)c(=O)n(CCCN)c2n1
Q. Hello, I am sorting some records. Could you say if P or Q has the smaller ΔTm value? Write the label of whichever entry you select.
A. P

[P] Cc1cccc(-c2ccc(-c3cc4cnc(NCCCN5CCNCC5)nc4n(CCCCN)c3=O)c(Cl)c2)n1
[Q] CNc1ncc2cc(-c3ccc(-c4cccc(C)n4)cc3Cl)c(=O)n(C)c2n1
Q. Hello, I am sorting some records. Could you say if P or Q has the smaller ΔTm value? Write the label of whichever entry you select.
A. Q
(Q: 1.6 °C, P: 8.9 °C)
